Where these numbers come from: ChEMBL document CHEMBL1133416

measured_on: Adenosinetriphosphatase (Gallus gallus)
Sequence (Q9I8A2 whole entry): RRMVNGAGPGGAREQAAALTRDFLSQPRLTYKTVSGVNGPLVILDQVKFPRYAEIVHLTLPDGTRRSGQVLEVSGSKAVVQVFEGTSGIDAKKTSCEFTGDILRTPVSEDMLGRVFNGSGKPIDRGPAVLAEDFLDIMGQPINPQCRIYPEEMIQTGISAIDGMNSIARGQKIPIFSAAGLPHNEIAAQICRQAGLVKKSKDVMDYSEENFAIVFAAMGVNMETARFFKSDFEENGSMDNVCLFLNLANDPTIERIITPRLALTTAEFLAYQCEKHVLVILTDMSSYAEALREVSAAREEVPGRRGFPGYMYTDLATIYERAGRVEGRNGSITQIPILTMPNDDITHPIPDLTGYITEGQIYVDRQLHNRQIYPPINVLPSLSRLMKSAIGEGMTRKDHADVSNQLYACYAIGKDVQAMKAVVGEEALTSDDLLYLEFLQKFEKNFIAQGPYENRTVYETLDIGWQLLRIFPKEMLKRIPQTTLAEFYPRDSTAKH
assay_comment: Compound was tested for in vitro inhibition of osteoclast vacuolar acid pump
Format: functional
observed_property: IC50 (µM)

I. CC1(C)CC(NC(=O)/C=C/C=C/C(=O)Nc2ccc(Cl)c(Cl)c2)CC(C)(C)N1
II. CC1(C)CC(NC(=O)c2cccc(CC(=O)Nc3ccc(Cl)c(Cl)c3)c2)CC(C)(C)N1
Lab note: check whether I or II has the lower measured IC50. // return label of chosen record
I
